Source of measurements: PubChem BioAssay (NCI)

Give measured growth inhibition for each item. Keep answers brief.
test: NCI Yeast Anticancer Drug Screen. Data for the cln2 rad14 strain (AID 165);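 also: 0% = growth equal to vehicle treated cultures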; conditions: S. cerevisiae cln2 rad14 strain, active compounds read high; at 50.0 µM unless noted
This is part of a sample that, as a whole, favours compounds with a hit. Of some 79,000 tested, about 15% had one in any assay.
The answer is to be given in %; state only the numeric part.

Lookup: # query: growth inhibition of entry "Cn1c(Nc2ccccc2)c(C=Nc2ccccc2)c(=O)n(C)c1=O"
Found: 7.55

Lookup: What would you report for "O=C(Oc1ccccc1)C(=O)Oc1ccccc1" ?
Found: -15.4

Lookup: Moving on to the next compound: "Nc1nc(-c2ccco2)cc(-c2ccco2)n1"
Found: 12.8

Lookup: Entry to check: "Cc1ccnc(NC(=O)CCc2ccccc2)c1"
Found: -31.7

Lookup: Then this compound: "CC(C)(C)c1ccncc1"
Found: -10.2

Lookup: Now consider N#CCc1cccc(Cl)c1Cl (tested in a mixture with another compound) and answer again.
Found: -22.4

Lookup: Next compound: "O=P1(O)c2ccccc2Nc2cc(C(F)(F)F)ccc21"
Found: 8.7

Lookup: Cool, now "CC(=O)OC[C@H](O)[C@@]1(O)CC[C@H]2[C@@H]3CCC4=CC(=O)C=C[C@]4(C)[C@H]3[C@@H](O)C[C@@]21C"
Found: 1.15

Lookup: Same lookup for CC(C)COC(=O)C(CC(C)C)NC(=O)C(C)O (stereo unspecified) , please.
Found: 10.8

Lookup: Then this compound: "O=C(/C=C/c1ccc(OCC(=O)N2CCN(c3ccccc3)CC2)cc1)c1ccccc1"
Found: -5.95

Lookup: Same for "O=C1OCC/C1=C\c1ccc2c(c1)OCO2"
Found: -2.85

Lookup: Would you kindly repeat that for "Cn1c(=O)c(C(=O)Nc2nc(C34CC5CC(CC(C5)C3)C4)cs2)c(O)c2ccccc21" ?
Found: 11.1

Lookup: Now consider "Cc1cc(C(=O)c2ccccc2)on1" and answer again.
Found: -36.1

Lookup: Follow-up entry: "O=C1c2cc(Cc3ccccc3)c(=O)c(Cc3ccccc3)cc2C(=O)c2cc(Cc3ccccc3)c(=O)c(Cc3ccccc3)cc21"
Found: -26

Lookup: Now consider Cc1cc(=O)[nH]c(NNC(C#N)c2cccc([N+](=O)[O-])c2)n1 (stereo unspecified) .
Found: -12.8

Lookup: Same question for O=C(c1ccc([N+](=O)[O-])cc1)N(Cc1ccccc1)Cc1ccccc1 (tested in a mixture with another compound) please.
Found: -10.9

Lookup: # repeat for "CC(=O)O[C@@H]1C(=O)C=C(C)[C@@H]2[C@@H](OC(=O)C=C(C)C)[C@H]3OC(=O)C[C@H]4[C@@H](C)[C@@H](O)[C@]5(O)OC[C@]34[C@H]5[C@@]12C"
Found: 88.5

Lookup: // next record "CCN(CC)C(=O)c1c(Cl)cc(N(CC)CC)oc1=O"
Found: -23.5

Lookup: Now the compound "O=C(Cc1csc(-c2nc(CC(=O)NNc3ccccc3)cs2)n1)NNc1ccccc1"
Found: -38.4

Lookup: // next record "O=C(NCCS)C(=O)NCCS"
Found: 9.7

Lookup: Also, CCCCCCCCCCCCN1CCCC(O)C1 (stereo unspecified) please.
Found: 56.4

* * *

assay: NCI Yeast Anticancer Drug Screen. Data for the rad50 strain (AID 155);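 also: 0% = growth of vehicle-only cultures of the same strain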; conditions: S. cerevisiae rad50 strain growth inhibition, active compounds read high; at 50.0 µM unless noted
This is part of a sample that, as a whole, favours compounds with a hit. Of some 79,000 tested, about 15% had one in any assay.
So I've got a bunch of molecules here, and I need their growth inhibition values.
Number in %, nothing else.

Lookup: What value of growth inhibition has been recorded for this entry: CSCCC(NC(=O)OCc1ccccc1)C(=O)O (stereo not given)
Found: -31.4

Lookup: Queued: "O=C(c1ccc(Cl)cc1)c1ccccc1C(=O)c1ccc(Cl)cc1"
Found: 0.8

Lookup: Further, for "CCCCN(Cc1ccccc1)C(=S)Nc1ccccc1" ?
Found: 17.4

Lookup: Follow-up entry: "CCCOCC[N+](C)(C)C"
Found: 1.65

Lookup: Cool, now "NC(=O)CSc1c2cc(O)ccc2nc2ccc(O)cc12"
Found: -17.8

Lookup: Same read-out for "CC(C)(C)OC(=O)c1ccccc1C(=O)c1ccccc1" ?
Found: -0.4

Lookup: Try this molecule too: CCCCN(CCCC)CCC(O)c1cc(-c2ccc(C(F)(F)F)cc2)nc(C(F)(F)F)c1 (stereo not given)
Found: 98.5

Lookup: Also need CCC(CN)C(F)(F)C(F)(F)C(F)(F)F (stereo not given) , thanks.
Found: 4.65

Lookup: And the next one, "CCCCCCCCCCCCCCCCCc1c(Cl)c(Cl)c(Cl)c(Cl)c1Cl" ?
Found: 47

Lookup: Quick one: "CCCSc1nn2cc(NC(=O)OC)nc2s1"
Found: -13.5

Lookup: Now this one: CCCCCCCCCCC1CC(=O)OC1=O (stereo not given)
Found: 17.2

Lookup: Now try "CCOC(=O)CC(=O)Cc1ccccc1" .
Found: -23.3

Lookup: "CS1(C)=Nc2c([N+](=O)[O-])cc([N+](=O)[O-])cc2S(=O)(=O)N=1" , same question.
Found: -9.9

Lookup: And what about the molecule "Nc1nc2cc3nc(N)c(N)nc3cc2nc1N" ?
Found: -6.4

Lookup: Further, for "Cc1nc2[nH]ncc2c(=O)n1-c1ccccc1Cl" ?
Found: 6

Lookup: Now give it for "CC(=O)/C=C/N1CCOCC1" too.
Found: 3.25

Lookup: How about this molecule: "Cc1ccccc1C(=O)NCC(=O)O"
Found: 10.8

Lookup: Then what about the molecule "CC1=Nc2ccccc2S/C1=C(/C)NNS(=O)(=O)c1ccc(C)cc1" ?
Found: 10.1

Lookup: Same again, this time with "CCN(CC)C(=S)Oc1cc(Cl)c(Cl)cc1Cl"
Found: -5.45

Lookup: Would you mind doing "Cn1ccnc1C(O)(c1nccn1C)c1nccn1C" as well?
Found: -5.75

Lookup: Further, for CC(C)N1C(=O)N(Cl)C2C1N(Cl)C(=O)N2Cl (stereo not given) ?
Found: 15

Lookup: Now try "C=CCCn1nc(-c2ccccc2)oc1=O" .
Found: -8.35

Lookup: Could you do the same for Cc1ccc(C(=O)C2C(=O)C(=O)OC2C2OC(=O)C(=O)C2C(=O)c2ccc(C)cc2)cc1 (stereo not given) , please?
Found: 43.8

Lookup: And what about the molecule CCOC(=O)C1=C(O)C[C@]2(O)C3CC=C(C)[C@@H]4CCO[C@](OC)(C[C@H]2C1)[C@]34C(=O)OC (stereo not given in full) ?
Found: 1

Lookup: Param item: O=C1OC(C2OC(=O)C(=O)C2C2CCCCCCC2=O)C(C2CCCCCCC2=O)C1=O (stereo not given)
Found: 45.5
